# Test system: Measles
# Measurement Protocol: microbe, parasite or virus in culture
# Type: cell-based
# Experimental Setup: read-out: EC50 Measles
Readout Label: pEC50
Would you please state pEC50, meaning minus log10 of the concentration in mol/L, as a bare number?

Req: Need pEC50, item "CC(C)n1ncc2c(C(=O)Nc3cccc(S(N)(=O)=O)c3)cc(-c3cccs3)nc21"
Resp: 5.15

Req: Repeat for the following compound: "CC(C)n1ncc2c(C(=O)Nc3ccc(F)cc3)cc(-c3ccsc3)nc21"
Resp: 4.69

Req: Repeat for the following compound: "CC(C)n1ncc2c(C(=O)Nc3ccc(F)cc3)cc(-c3cccs3)nc21"
Resp: 5.05

Req: Repeat for the following compound: "CC(C)n1ncc2c(C(=O)Nc3ccc(F)cc3F)cc(-c3cccs3)nc21"
Resp: 4.47

---

# Measurement Protocol: in vitro
Readout Label: CC50 (µM)
State the answer as a number, implicitly in µM.

Req: Need CC50, item CC(C)n1ncc2c(NC(=O)c3ccc(F)cc3)cc(-c3cccs3)nc21 [JX-054]
Resp: 50

---

# Test system: Echovirus 11
# Measurement Protocol: microbe, parasite or virus in culture
# Type: cell-based
# Experimental Setup: read-out: EC50 ECHO11
For each of the molecules below, state its pEC50.
Would you please state pEC50, meaning minus log10 of the concentration in mol/L, as a bare number?

Req: Need pEC50, item "CC(C)n1ncc2c(C(=O)Nc3c(F)cccc3F)cc(-c3cccs3)nc21"
Resp: 5.55

Req: Repeat for the following molecule: "CNS(=O)(=O)c1cccc(NC(=O)c2cc(-c3cccs3)nc3c2cnn3C(C)C)c1"
Resp: 6.22

Req: Repeat for the following molecule: "CC(C)n1ncc2c(C(=O)Nc3ccccn3)cc(-c3cccs3)nc21"
Resp: 6.30

---

For each of the molecules below, state its pEC50.
# Tested on: SARS Coronavirus
# Format: cell-based
Would you please state pEC50, meaning minus log10 of the concentration in mol/L, as a bare number?

Req: Need pEC50, item CC(C)n1ncc2c(C(=O)Nc3ccc(F)cc3F)cc(-c3cccs3)nc21 [JX-008]
Resp: 4.17

Req: Repeat for the following molecule: CC(C)n1ncc2c(C(=O)Nc3ccc(F)cc3)cc(-c3ccsc3)nc21 [JX-030]
Resp: 5.36

Req: Repeat for the following molecule: CC(C)n1ncc2c(C(=O)Nc3ccccc3F)cc(-c3cccs3)nc21 [JX-001]
Resp: 5.49

---

For each of the compounds below, state its CC50.
# System: Vero 76
# Experimental Setup: read-out: CC50 (Rift Valley virus test), with Rift Valley virus MP-12 test
State the answer as a number, implicitly in µM.

Req: Could you share what CC50 was measured for "CC(C)n1ncc2c(C(=O)Nc3ccc(F)cc3)cc(-c3cccs3)nc21" , tested on Vero 76?
Resp: 52

Req: Repeat for the following compound: "CC(C)n1ncc2c(C(=O)Nc3ccc(F)cc3F)cc(-c3cccs3)nc21"
Resp: 77

Req: Repeat for the following compound: "CC(C)n1ncc2c(C(=O)Nc3ccccc3F)cc(-c3cccs3)nc21"
Resp: 50

Req: Repeat for the following compound: "CC(C)n1ncc2c(C(=O)Nc3ccc(F)cc3)cc(-c3ccsc3)nc21"
Resp: 169

---

# System: Coxsackievirus B5
# Measurement Protocol: microbe, parasite or virus in culture
# Assay type: cell-based
# Experimental Setup: read-out: EC50 CVB5
For each of the compounds below, state its pEC50.
Would you please state pEC50, meaning minus log10 of the concentration in mol/L, as a bare number?

Req: Need pEC50, item "CC(C)n1ncc2c(C(=O)Nc3cccnc3)cc(-c3ccsc3)nc21"
Resp: 6.22

Req: Repeat for the following compound: "CC(C)n1ncc2c(C(=O)Nc3cccc(S(=O)(=O)N(C)C)c3)cc(-c3cccs3)nc21"
Resp: 5.92

Req: Repeat for the following compound: "CC(C)n1ncc2c(C(=O)Nc3ccc(F)cc3)cc(-c3cccs3)nc21"
Resp: 6.00

Req: Repeat for the following compound: "CC(C)n1ncc2c(C(=O)Nc3ccccn3)cc(-c3cccs3)nc21"
Resp: 6.22

Req: Repeat for the following compound: "CC(C)n1ncc2c(C(=O)N3CCc4cc(F)ccc43)cc(-c3cccs3)nc21"
Resp: 5.92

Req: Repeat for the following compound: "CC(C)n1ncc2c(C(=O)Nc3ccc(F)c(F)c3)cc(-c3cccs3)nc21"
Resp: 5.64

Req: Repeat for the following compound: "CC(C)n1ncc2c(C(=O)Nc3ccccc3S(N)(=O)=O)cc(-c3cccs3)nc21"
Resp: 5.57

Req: Repeat for the following compound: "CC(C)n1ncc2c(C(=O)Nc3ncccn3)cc(-c3ccsc3)nc21"
Resp: 5.92

Req: Repeat for the following compound: "CC(C)n1ncc2c(C(=O)Nc3ccccn3)cc(-c3ccsc3)nc21"
Resp: 5.92

Req: Repeat for the following compound: "CC(C)n1ncc2c(C(=O)Nc3cccc(S(N)(=O)=O)c3)cc(-c3cccs3)nc21"
Resp: 5.92

Req: Repeat for the following compound: "CC(C)n1ncc2c(C(=O)Nc3cncnc3)cc(-c3cccs3)nc21"
Resp: 6.30

Req: Repeat for the following compound: "CNS(=O)(=O)c1cccc(NC(=O)c2cc(-c3cccs3)nc3c2cnn3C(C)C)c1"
Resp: 6.22

Req: Repeat for the following compound: "CC(C)n1ncc2c(C(=O)Nc3cc(S(N)(=O)=O)ccc3F)cc(-c3cccs3)nc21"
Resp: 6.30

Req: Repeat for the following compound: "CC(C)n1ncc2c(C(=O)Nc3ccc(F)cc3F)cc(-c3cccs3)nc21"
Resp: 5.64

Req: Repeat for the following compound: "CC(C)n1ncc2c(C(=O)Nc3cccc(F)c3)cc(-c3cccs3)nc21"
Resp: 5.64

Req: Repeat for the following compound: "CC(C)n1ncc2c(C(=O)Nc3ncccn3)cc(-c3cccs3)nc21"
Resp: 6.22

Req: Repeat for the following compound: "CC(C)n1ncc2c(C(=O)Nc3cccc(C(N)=O)c3)cc(-c3cccs3)nc21"
Resp: 6.22

---

# System: Echovirus 11
# Measurement Protocol: microbe, parasite or virus in culture
# Format: cell-based
# Experimental Setup: read-out: EC50 ECHO11
Readout Label: pEC50
Would you please state pEC50, meaning minus log10 of the concentration in mol/L, as a bare number?

Req: Need pEC50, item "CC(C)n1ncc2c(C(=O)Nc3ccncn3)cc(-c3ccsc3)nc21"
Resp: 5.92

Req: Repeat for the following molecule: "CC(C)n1ncc2c(C(=O)Nc3ccccc3F)cc(-c3cccs3)nc21"
Resp: 5.82

Req: Repeat for the following molecule: "CC(C)n1ncc2c(C(=O)Nc3ccccc3F)cc(-c3cncs3)nc21"
Resp: 5.49

Req: Repeat for the following molecule: "CC(C)n1ncc2c(C(=O)Nc3ccccc3F)cc(-c3ccccn3)nc21"
Resp: 5.42

Req: Repeat for the following molecule: "CC(C)n1ncc2c(C(=O)Nc3ncccn3)cc(-c3ccsc3)nc21"
Resp: 5.89

---

# Tested on: Coxsackievirus B5
# Measurement Protocol: microbe, parasite or virus in culture
# Type: cell-based
# Experimental Setup: read-out: EC50 CVB5
For each of the compounds below, state its EC50.
State the answer as a number, implicitly in nM.

Req: Could you share what EC50 was measured for "CC(C)n1ncc2c(C(=O)Nc3cccnc3)cc(-c3cccs3)nc21" , tested on Coxsackievirus B5?
Resp: 600

Req: Repeat for the following compound: "CC(C)n1ncc2c(C(=O)Nc3ccc(F)cc3)cc(-c3ccco3)nc21"
Resp: 3300

Req: Repeat for the following compound: "CC(C)n1ncc2c(C(=O)Nc3ccc(F)cc3)cc(-c3ccsc3)nc21"
Resp: 1200

Req: Repeat for the following compound: "CC(C)n1ncc2c(C(=O)Nc3ccncn3)cc(-c3cccs3)nc21"
Resp: 600

Req: Repeat for the following compound: "CC(C)n1ncc2c(C(=O)Nc3ccncc3)cc(-c3cccs3)nc21"
Resp: 600

Req: Repeat for the following compound: "CC(C)n1ncc2c(C(=O)Nc3ccc(S(C)(=O)=O)cc3)cc(-c3cccs3)nc21"
Resp: 600

Req: Repeat for the following compound: "CC(C)n1ncc2c(C(=O)Nc3ccncn3)cc(-c3ccsc3)nc21"
Resp: 1200

Req: Repeat for the following compound: "CC(C)n1ncc2c(C(=O)Nc3ccccc3F)cc(-c3cccs3)nc21"
Resp: 2300

Req: Repeat for the following compound: "CC(C)n1ncc2c(C(=O)Nc3c(F)cc(F)cc3F)cc(-c3cccs3)nc21"
Resp: 2300

---

For each of the compounds below, state its pEC50.
# Test system: Coxsackievirus B3-H3
# Measurement Protocol: microbe, parasite or virus in culture
# Assay type: cell-based
# Experimental Setup: Coxsackievirus, B3 / CVB3, read-out: EC50 CVB3-H3
Would you please state pEC50, meaning minus log10 of the concentration in mol/L, as a bare number?

Req: Need pEC50, item CC(C)n1ncc2c(NC(=O)c3ccc(F)cc3)cc(-c3cccs3)nc21 [JX-054]
Resp: 5.33

Req: Repeat for the following compound: CC(C)n1ncc2c(N(C(=O)c3ccc(F)cc3)C(=O)c3ccc(F)cc3)cc(-c3cccs3)nc21 [JX-039]
Resp: 5.33
